Listed here are molecules together with their documented microsomal CLint at 1 uM.
test: Metabolic stability in human hepatic microsome; type: in vitro ADME; conditions: microsomes, pH 7.4; human hepatic microsome, NADPH(+); read-out: CL NADPH(+)
Starred links: 1 amine or outer side, 2 acyl side, 3 side chain; linkers in the order of their positions; H or OH if unused. Positions of bridges follow the written chain, without caps; N, C: chain ends. Non-standard residues stand in square brackets, D forms with d. Residues, ends and D or L forms follow the SMILES beside them. *: point of attachment. NMePhe(3-Cl) = CN[C@@H](Cc1cccc(Cl)c1)C(=O)O; NMeF = CN[C@@H](Cc1ccccc1)C(=O)O; NMeβAla = CN(CCC(=O)[*:2])[*:1]; NMeL = CN[C@@H](CC(C)C)C(=O)O; NMeV = CN[C@H](C(=O)O)C(C)C; NMeA = CN[C@@H](C)C(=O)O; Piperidide = C1CCN(*)CC1; dNMeA = CN[C@H](C)C(=O)O; β3hA = C[C@H](N)CC(=O)O; Sar = CNCC(=O)O
Please don't drop the unit; write it after the number.

Molecule	Measured Value
CC[C@H](C)[C@@H]1NC(=O)[C@H](C)N(C)C(=O)[C@@H](C)N(C)C(=O)C[C@H](C)NC(=O)[C@H](CC(C)C)N(C)C(=O)[C@H](C)N(C)C(=O)[C@H](Cc2cccc(Cl)c2)N(C)C(=O)[C@H]([C@@H](C)O)NC(=O)[C@H](Cc2cccc(Cl)c2)N(C)C(=O)[C@H](CC(C)C)N(C)C1=O [DP-811] (cyclo(I[NMeL][NMePhe(3-Cl)]T[NMePhe(3-Cl)][NMeA][NMeL][β3hA][dNMeA][NMeA]))	241 µL/min/mg

# evaluate next
Request: I am curious: what microsomal CLint at 1 uM value has been reported for CC[C@H](C)[C@@H]1NC(=O)[C@H](CC(C)C)N(C)C(=O)CCN(C)C(=O)C[C@@H](C(=O)N(C)[C@@H](Cc2ccccc2)C(=O)N(C)[C@@H](Cc2ccccc2)C(=O)N[C@@H](C)C(=O)N2CCCCC2)NC(=O)[C@H](C(C)C)N(C)C(=O)[C@H](CC(C)C)N(C)C(=O)CN(C)C(=O)[C@H]([C@@H](C)O)NC(=O)[C@H](Cc2ccccc2)NC(=O)[C@H](C(C)C)N(C)C1=O [DP-496] ([NMeβAla][NMeL]I[NMeV]FT[Sar][NMeL][NMeV]D[NMeF][NMeF]A-Piperidide; lactam N-10) ?
Response: 13 µL/min/mg
